- tested_target: Ras farnesyl transferase (Rattus norvegicus, UniProt Q02293+Q04631)
- Construct: endogenous in cells; host or cells: Rat2 fibroblasts transformed with C-Harvey-Ras, or with H-Ras carrying the K-Ras C-terminal polybasic lysine domain
- experiment: in vivo (cellular) Ras farnesyl transferase inhibitory activity, Rat2 cells expressing C-Harvey-Ras
- Assay type: cell-based
- applied_conditions: Rat2 cell line expressing C-Harvey-Ras; concentration inhibiting 50% of farnesyl binding of Ras protein; read-out: H-Ras CIC50
metric_name: IC50 (µM)
Give the value, in units of µM, as a plain number.

CN1CCN(C(=O)c2cn(Cc3cncn3CC3CCN(C(=O)/C=C/c4ccccc4)CC3)cc2-c2cccc3ccccc23)CC1 :: 0.03

API: the following record is the query input.
*Q* Record `CN1CCN(C(=O)c2cn(Cc3cncn3CC3CCN(S(C)(=O)=O)CC3)cc2-c2cccc3ccccc23)CC1` : what is its IC50 with Ras farnesyl transferase (Rattus norvegicus, UniProt Q02293+Q04631)?
*A* 0.05

----------
IC50 overview
- tested_target: Ras farnesyl transferase (Homo sapiens, UniProt P49354+P49356)
- Construct: made in house
- experiment: in vitro inhibitory activity for Ras farnesyl transferase, K-Ras substrate
- Assay type: biochemical
- applied_conditions: recombinant Ras farnesyl transferase, K-Ras substrate; read-out: K-Ras IC50
Give the value, in units of nM, as a plain number.

Past entries and their recorded results:
CN1CCN(C(=O)c2cn(Cc3cncn3CC3CCN(C(=O)N4CCCc5ccccc54)CC3)cc2-c2cccc3ccccc23)CC1 [Compound 54] :: 40
CN1CCN(C(=O)c2cn(Cc3cncn3CC3CCN(C(=O)OCc4ccc5ccccc5c4)CC3)cc2-c2cccc3ccccc23)CC1 [Compound 45] :: 12
CC(C)c1nc(C(=O)N2CCC(Cn3cncc3Cn3cc(C(=O)N4CCN(C)CC4)c(-c4cccc5ccccc45)c3)CC2)cs1 [Compound 51] :: 10
O=C(OCc1ccccc1)N1CCC(Cn2cncc2Cn2cc(C(=O)N3CCOCC3)c(-c3cccc4ccccc34)c2)CC1 [Compound 1] :: 2400

API: the following record is the query input.
*Q* IC50 for CN1CCN(C(=O)c2cn(Cc3cncn3CC3CCN(C(=O)N(C)C)CC3)cc2-c2cccc3ccccc23)CC1 [Compound 53] ?
*A* 8.5

----------
- tested_target: Ras farnesyl transferase (Rattus norvegicus, UniProt Q02293+Q04631)
- Construct: endogenous in cells; host or cells: Rat2 fibroblasts transformed with C-Harvey-Ras, or with H-Ras carrying the K-Ras C-terminal polybasic lysine domain
- experiment: in vivo (cellular) Ras farnesyl transferase inhibitory activity, Rat2 cells transformed with H-Ras fused with polybasic lysine domain of K-Ras
- Assay type: cell-based
- applied_conditions: Rat2 cell line transformed with H-Ras substituted with polybasic lysine domain at C-terminus of K-Ras; concentration inhibiting 50% of farnesyl binding; read-out: K-Ras CIC50
IC50 overview

CN1CCN(C(=O)c2cn(Cc3cncn3CC3CCN(C(=O)OC/C=C/c4ccccc4)CC3)cc2-c2cccc3ccccc23)CC1 :: 1 µM
COCCN(C)C(=O)c1cn(Cc2cncn2CC2CCN(C(=O)CCc3ccccc3)CC2)cc1-c1cccc2ccccc12 :: 1 to 50 µM
CN1CCN(C(=O)c2cn(Cc3cncn3CC3CCN(C(=O)c4ccc5ccccc5c4)CC3)cc2-c2cccc3ccccc23)CC1 :: 10 µM
COCCN(C)C(=O)c1cn(Cc2cncn2CC2CCN(C(=O)OCc3ccc(F)cc3)CC2)cc1-c1cccc2ccccc12 :: 1 to 10 µM

*Q* IC50 for `CN1CCN(C(=O)c2cn(Cc3cncn3CC3CCN(C(=O)N4CCCc5ccccc54)CC3)cc2-c2cccc3ccccc23)CC1` ?
*A* 10 to 50 µM

*Q* Param item: `CC(C)CCOC(=O)N1CCC(Cn2cncc2Cn2cc(C(=O)N3CCN(C)CC3)c(-c3cccc4ccccc34)c2)CC1`
*A* 10 to 50 µM

*Q* Param item: `COCCN(C)C(=O)c1cn(Cc2cncn2CC2CCN(C(=O)Cc3ccc(-c4ccccc4)cc3)CC2)cc1-c1cccc2ccccc12`
*A* 1 to 50 µM

*Q* Param item: `COCCN(C)C(=O)c1cn(Cc2cncn2CC2CCN(C(=O)N3CCc4ccccc4C3)CC2)cc1-c1cccc2ccccc12`
*A* 1 to 10 µM

----------
- tested_target: Ras farnesyl transferase (Homo sapiens, UniProt P49354+P49356)
- Construct: made in house
- experiment: in vitro inhibitory activity for Ras farnesyl transferase, H-Ras substrate
- Format: biochemical
- applied_conditions: recombinant Ras farnesyl transferase, H-Ras substrate, tritium-farnesylpyrophosphate, 30 minutes at 37° C.; read-out: H-Ras IC50
metric_name: pIC50
# reply with the number alone; pIC50 is -log10 of concentration in mol/L

Past entries and their recorded results:
CN1CCN(C(=O)c2cn(Cc3cncn3CC3CCN(C(=O)CCc4ccccc4)CC3)cc2-c2cccc3ccccc23)CC1 [Compound 43] :: 8.70
CC(C)c1nc(C(=O)N2CCC(Cn3cncc3Cn3cc(C(=O)N4CCN(C)CC4)c(-c4cccc5ccccc45)c3)CC2)cs1 [Compound 51] :: 8.52
CN1CCN(C(=O)c2cn(Cc3cncn3CC3CCN(C(=O)N(C)Cc4ccccc4)CC3)cc2-c2cccc3ccccc23)CC1 [Compound 52] :: 8.64
COCCN(C)C(=O)c1cn(Cc2cncn2CC2CCN(C(=O)OCc3ccc4ccccc4c3)CC2)cc1-c1cccc2ccccc12 [Compound 20] :: 8.22
CN1CCN(C(=O)c2cn(Cc3cncn3CC3CCN(C(=O)c4ccc5ccccc5c4)CC3)cc2-c2cccc3ccccc23)CC1 [Compound 49] :: 8.74
CN(C)CCN(C)C(=O)c1cn(Cc2cncn2CC2CCN(C(=O)OCc3ccccc3)CC2)cc1-c1cccc2ccccc12 [Compound 39] :: 6.52
COCCN(C)C(=O)c1cn(Cc2cncn2CC2CCN(C(=O)N(C)Cc3ccccc3)CC2)cc1-c1cccc2ccccc12 [Compound 30] :: 8.60
COCCN(C)C(=O)c1cn(Cc2cncn2CC2CCN(C(=O)c3ccc4ccccc4c3)CC2)cc1-c1cccc2ccccc12 [Compound 27] :: 8.05

*Q* pIC50 for COCCN(C)C(=O)c1cn(Cc2cncn2CC2CCN(Cc3ccc(-c4ccccc4)cc3)CC2)cc1-c1cccc2ccccc12 [Compound 33] ?
*A* 8.30

*Q* Param item: O=C(OCc1ccccc1)N1CCC(Cn2cncc2Cn2cc(C(=O)N3CCOCC3)c(-c3cccc4ccccc34)c2)CC1 [Compound 1]
*A* 8.07

*Q* Param item: COCCN(C)C(=O)c1cn(Cc2cncn2CC2CCN(C(=O)COc3ccccc3)CC2)cc1-c1cccc2ccccc12 [Compound 14]
*A* 8.68

*Q* Param item: COCCN(C)C(=O)c1cn(Cc2cncn2CC2CCN(C(=O)CCc3ccccc3)CC2)cc1-c1cccc2ccccc12 [Compound 15]
*A* 9.00

*Q* Param item: COC(=O)N1CCC(Cn2cncc2Cn2cc(C(=O)N3CCN(C)CC3)c(-c3cccc4ccccc34)c2)CC1 [Compound 40]
*A* 8.80

*Q* Param item: CN1CCN(C(=O)c2cn(Cc3cncn3CC3CCN(C(=O)N4CCc5ccccc5C4)CC3)cc2-c2cccc3ccccc23)CC1 [Compound 55]
*A* 8.70

*Q* Param item: COCCN(C)C(=O)c1cn(Cc2cncn2CC2CCN(C(=O)/C=C/c3ccccc3)CC2)cc1-c1cccc2ccccc12 [Compound 28]
*A* 7.92

*Q* Param item: CN1CCN(C(=O)c2cn(Cc3cncn3CC3CCN(C(=O)OCc4ccc(F)cc4)CC3)cc2-c2cccc3ccccc23)CC1 [Compound 47]
*A* 8.48

----------
- tested_target: Ras farnesyl transferase (Homo sapiens, UniProt P49354+P49356)
- Construct: made in house
- experiment: in vitro inhibitory activity for Ras farnesyl transferase, K-Ras substrate
- Type: biochemical
- applied_conditions: recombinant Ras farnesyl transferase, K-Ras substrate; read-out: K-Ras IC50
metric_name: IC50 (nM)
Give the value, in units of nM, as a plain number.

CN1CCN(C(=O)c2cn(Cc3cncn3CC3CCN(C(=O)CCc4ccccc4)CC3)cc2-c2cccc3ccccc23)CC1 [Compound 43] :: 10

API: the following record is the query input.
*Q* IC50 for COCCN(C)C(=O)c1cn(Cc2cncn2CC2CCN(C(=O)OCC=C(C)C)CC2)cc1-c1cccc2ccccc12 [Compound 22] ?
*A* 20

----------
- tested_target: Ras farnesyl transferase (Rattus norvegicus, UniProt Q02293+Q04631)
- Construct: endogenous in cells; host or cells: Rat2 fibroblasts transformed with C-Harvey-Ras, or with H-Ras carrying the K-Ras C-terminal polybasic lysine domain
- experiment: in vivo (cellular) Ras farnesyl transferase inhibitory activity, Rat2 cells expressing C-Harvey-Ras
- Assay type: cell-based
- Description: In the present experiment, Rat2 cell line which expresses C-Harvey-Ras protein having transforming activity and Rat2 cell line(Korean patent application No. 97-14409) which is transformed with fused protein of H-Ras substituted with polybasic lysine domain at C-terminus of K-Ras were used. The experiment was performed by the modified Declue's method(Declue. J. E. et al., Cancer Research, 1991, 51, 712). Hereinafter, the experimental method will be described in more detail. […]
metric_name: IC50 (µM)
Give the value, in units of µM, as a plain number.

*Q* IC50 for `O=C(c1ccn(Cc2cncn2CC2CCN(C(=O)OCc3ccccc3)CC2)c1)c1cccc2ccccc12` ?
*A* 10
